- assayed target: ZC3HC1 (UniProt Q86WB0)
- Sequence (Q86WB0 whole entry, looked up): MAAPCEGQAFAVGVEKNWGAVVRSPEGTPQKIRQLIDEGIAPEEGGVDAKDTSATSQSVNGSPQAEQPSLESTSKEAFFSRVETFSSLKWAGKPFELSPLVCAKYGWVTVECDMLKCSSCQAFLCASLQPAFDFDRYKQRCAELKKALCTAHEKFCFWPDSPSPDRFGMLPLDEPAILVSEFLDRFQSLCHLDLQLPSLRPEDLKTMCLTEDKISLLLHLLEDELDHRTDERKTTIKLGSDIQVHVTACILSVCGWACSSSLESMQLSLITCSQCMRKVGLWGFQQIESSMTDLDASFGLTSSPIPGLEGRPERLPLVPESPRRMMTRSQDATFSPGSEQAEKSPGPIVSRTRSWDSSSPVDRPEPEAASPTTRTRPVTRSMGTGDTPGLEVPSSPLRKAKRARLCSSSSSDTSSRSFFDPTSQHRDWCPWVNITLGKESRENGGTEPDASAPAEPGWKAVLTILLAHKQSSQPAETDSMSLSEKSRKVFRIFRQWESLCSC
- method notes: log2 fold change, soluble protein after heating vs DMSO (PISA); higher = thermal stabilisation; K562 cells, 10 uM, 30 min; active = over 0.2 and 3.5 SD of the protein, either way, in both replicates (recomputed)
Targets with a hit are over-represented here; the source holds about 7,900 in all. About 0.6% of all pairs of compound and target were hits.
Outcomes: true (active), false (inactive)

> print(dat)
                                   compound  class.assignment
1  c1cn2cc(-c3ccc4cn[nH]c4c3)nc(Nc3ccc(N4CCOCC4)cc3)c2n1 [entospletinib]             false
2  CN1CCC(CNc2ccc3ncc(-c4cccc(OC(F)(F)F)c4)n3n2)CC1              true
3  COc1cc(Nc2ncc3c(n2)-c2ccc(Cl)cc2C(c2c(F)cccc2OC)=NC3)ccc1C(=O)O [alisertib]             false
4  CC(C)C[C@@H](C=O)NC(=O)[C@H](CC(C)C)NC(=O)[C@H](CC(C)C)NC(=O)OCc1ccccc1             false
5  COc1cc2ncnc(Nc3ccc(F)c(Cl)c3)c2cc1OCCCN1CCOCC1 [gefitinib]             false
6  C#Cc1cccc(Nc2ncnc3cc(OCCOC)c(OCCOC)cc23)c1 [erlotinib]             false

* * *

- assayed target: YES1 (UniProt P07947)
- Sequence (P07947 whole entry, looked up): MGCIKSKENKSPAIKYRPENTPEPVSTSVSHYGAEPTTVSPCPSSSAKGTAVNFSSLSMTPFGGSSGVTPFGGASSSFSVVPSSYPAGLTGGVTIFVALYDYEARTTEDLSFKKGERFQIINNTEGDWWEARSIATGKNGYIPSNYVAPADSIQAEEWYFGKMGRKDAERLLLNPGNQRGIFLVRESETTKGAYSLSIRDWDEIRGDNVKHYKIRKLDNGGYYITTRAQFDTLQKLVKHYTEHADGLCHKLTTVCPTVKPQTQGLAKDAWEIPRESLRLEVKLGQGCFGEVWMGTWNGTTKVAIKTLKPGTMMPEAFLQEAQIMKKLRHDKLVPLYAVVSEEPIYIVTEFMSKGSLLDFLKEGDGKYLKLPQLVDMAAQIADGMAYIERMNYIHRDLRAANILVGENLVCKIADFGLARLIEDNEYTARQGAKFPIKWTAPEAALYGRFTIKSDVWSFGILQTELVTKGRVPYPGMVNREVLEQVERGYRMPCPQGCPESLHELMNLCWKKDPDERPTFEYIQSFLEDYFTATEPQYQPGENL
- method notes: log2 fold change, soluble protein after heating vs DMSO (PISA); higher = thermal stabilisation; K562 cells, 10 uM, 30 min; active = over 0.2 and 3.5 SD of the protein, either way, in both replicates (recomputed)
Of roughly 7,900 targets only a part is listed; those with a hit were picked by preference. About 0.6% of all pairs of compound and target were hits.
endpoint: log2 fold change

> print(dat)
                              smiles.record  value.observed
1  CCn1c(C(=O)N(C2CC2)C2CC2)cc2c3c(ncn3C)c(Nc3cc(C)n(C)n3)nc21          -0.243
2  Cc1cc(Nc2cc(CN3CCOCC3)c3nc(C)c(Cc4ccc(Cl)cc4F)n3n2)n[nH]1          -0.447
3  Cc1ccc(NC(=O)c2ccc(CN3CC[C@H](N(C)C)C3)c(C(F)(F)F)c2)cc1Nc1nccc(-c2cncnc2)n1           0.049
4               O=C(CCCCCCC(=O)Nc1ccccc1)NO           0.069

* * *

Recorded log2 fold change for the following compounds
- assayed target: ZFP91 (UniProt Q96JP5)
- Sequence (Q96JP5 whole entry, looked up): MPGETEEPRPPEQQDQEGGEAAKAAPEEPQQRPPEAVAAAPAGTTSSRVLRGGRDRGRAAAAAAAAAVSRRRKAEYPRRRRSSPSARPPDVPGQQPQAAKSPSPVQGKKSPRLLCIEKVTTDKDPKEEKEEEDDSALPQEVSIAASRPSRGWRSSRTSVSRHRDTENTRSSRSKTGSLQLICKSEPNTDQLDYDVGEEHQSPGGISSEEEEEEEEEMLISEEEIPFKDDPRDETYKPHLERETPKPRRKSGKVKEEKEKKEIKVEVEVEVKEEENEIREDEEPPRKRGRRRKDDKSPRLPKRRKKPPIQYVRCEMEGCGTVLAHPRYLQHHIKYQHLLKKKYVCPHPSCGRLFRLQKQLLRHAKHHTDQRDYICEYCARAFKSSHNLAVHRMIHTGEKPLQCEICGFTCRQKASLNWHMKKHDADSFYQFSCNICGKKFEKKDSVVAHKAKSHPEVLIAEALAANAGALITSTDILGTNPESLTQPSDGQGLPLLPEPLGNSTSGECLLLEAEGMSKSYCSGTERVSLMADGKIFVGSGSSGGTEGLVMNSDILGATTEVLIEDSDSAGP
- method notes: log2 fold change, soluble protein after heating vs DMSO (PISA); higher = thermal stabilisation; K562 cells, 10 uM, 30 min; active = over 0.2 and 3.5 SD of the protein, either way, in both replicates (recomputed)
Of roughly 7,900 targets only a part is listed; those with a hit were picked by preference. About 0.6% of all pairs of compound and target were hits.
endpoint: log2 fold change

> print(dat)
                                   compound  value.observed
1  NC1(c2ccc(-c3nc4ccn5c(=O)[nH]nc5c4cc3-c3ccccc3)cc2)CCC1           0.144
2  CC(C)N(C[C@H]1O[C@@H](n2cnc3c(N)ncnc32)[C@H](O)[C@@H]1O)[C@H]1C[C@@H](CCc2nc3cc(C(C)(C)C)ccc3[nH]2)C1 [pinometostat]           0.136
3  CN(CCOc1ccc(C[C@@H]2SC(=O)NC2=O)cc1)c1ccccn1 (racemic) [rosiglitazone]          -0.101
4  Cn1cc(-c2ccc3nnc(C(F)(F)c4ccc5ncccc5c4)n3n2)cn1          -0.073

Reference for the values: the supplement of paper PMC10849652
